Assay comment: Tissue distribution (PK) in BALB/c nude mice bearing human colon cancer LoVo xenografts
Assay type: in vivo
Recorded conditions: mouse, plasma, LoVo xenograft mice, oral 40 mg/kg twice a day for three weeks, after last administration
Observation type: AUC(0-t) (µM·h)
API: value field is a number in µM·h; no unit string.

* C=CCn1c(=O)c2cnc(Nc3ccc(N4CCC5(CCN(C(C)=O)CC5)CC4)cc3)nc2n1-c1cccc(C(C)(C)O)n1 [Embodiment 30] | 14.2

Then this compound:
Please give the measured AUC(0-t) for this compound: C=CCn1c(=O)c2cnc(Nc3ccc(N4CCN(C)CC4)cc3)nc2n1-c1cccc(C(C)(C)O)n1 [AZD1775, reference compound]
6.97

---

Parameter: Tmax. Scope: all listed entries.
Assay comment: Tissue distribution (PK) in BALB/c nude mice bearing human colon cancer LoVo xenografts
Format: in vivo
Recorded conditions: mouse, liver, LoVo xenograft mice, oral 40 mg/kg twice a day for three weeks, after last administration

* C=CCn1c(=O)c2cnc(Nc3ccc(N4CCC5(CCN(C(C)=O)CC5)CC4)cc3)nc2n1-c1cccc(C(C)(C)O)n1 | 2 h

Please give the measured Tmax for this compound: C=CCn1c(=O)c2cnc(Nc3ccc(N4CCN(C)CC4)cc3)nc2n1-c1cccc(C(C)(C)O)n1 [AZD1775, reference compound]
0.5 h

---

Parameter: solubility at 24 h. Scope: all listed entries.
Assay comment: Thermodynamic solubility determination
Type: physicochemical
Recorded conditions: buffer, 22 °C, aqueous buffer, thermodynamic from solid; pH 6.5, shaken 24 hours at room temperature; read-out: Solubility (μM) pH 6.5
API: value field is a number in µM; no unit string.

- C=CCn1c(=O)c2cnc(Nc3ccc(N4CCC5(CCN(C)CC5)CC4)cc3)nc2n1-c1cccc(C(C)(C)O)n1 [Embodiment 29]: 1470

Then this compound:
Please give the measured solubility at 24 h for this compound: C=CCn1c(=O)c2cnc(Nc3ccc(N4CCN(C)CC4)cc3)nc2n1-c1cccc(C(C)(C)O)n1 [AZD1775, reference compound]
434

---

Target entity: Wee1 (Homo sapiens (Human), UniProt P30291)
Sequence (P30291 whole entry): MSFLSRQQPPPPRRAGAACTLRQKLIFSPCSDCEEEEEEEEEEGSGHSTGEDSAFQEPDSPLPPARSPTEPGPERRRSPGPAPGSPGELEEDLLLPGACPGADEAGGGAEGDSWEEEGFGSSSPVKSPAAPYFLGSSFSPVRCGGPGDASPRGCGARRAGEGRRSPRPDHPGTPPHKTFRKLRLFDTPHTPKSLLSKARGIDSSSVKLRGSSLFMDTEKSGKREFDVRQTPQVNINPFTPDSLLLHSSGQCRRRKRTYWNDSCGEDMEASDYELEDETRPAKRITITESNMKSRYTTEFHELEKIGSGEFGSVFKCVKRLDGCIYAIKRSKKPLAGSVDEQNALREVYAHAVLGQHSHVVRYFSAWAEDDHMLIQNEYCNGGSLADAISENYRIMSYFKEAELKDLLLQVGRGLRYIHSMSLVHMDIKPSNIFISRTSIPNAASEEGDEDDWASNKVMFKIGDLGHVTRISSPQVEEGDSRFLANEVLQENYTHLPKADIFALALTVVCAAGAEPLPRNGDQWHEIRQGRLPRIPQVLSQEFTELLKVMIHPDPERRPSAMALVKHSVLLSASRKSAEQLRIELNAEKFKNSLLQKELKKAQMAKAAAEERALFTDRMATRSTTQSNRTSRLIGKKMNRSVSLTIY
Assay comment: In vitro enzymatic inhibitory activity (33P-ATP filter-binding kinase assay, MBP substrate)
Assay type: biochemical
Recorded conditions: Wee-1 150 nM, MBP 20 μM
Observation type: log10 IC50 (log10 of the value in nM)
Note: values are log10 of IC50 expressed in nM.

Sample answers from the record:
• C=CCn1c(=O)c2cnc(Nc3ccc(N4CCC5(CCN(C)CC5)CC4)cc3)nc2n1-c1cccc([C@](C)(O)C(F)(F)F)n1 = 1.23
• C=CCn1c(=O)c2cnc(Nc3ccc(N4CCC5(CCN(C)CC5)CC4)cc3)nc2n1-c1cncnc1 = 2.01
• C=CCn1c(=O)c2cnc(Nc3ccc(N4CCC5(CCN(C)CC5)CC4)cc3)nc2n1-c1cccc(C(=O)NC)c1 = 1.63
• C=CCn1c(=O)c2cnc(Nc3ccc(N4CCC5(CCN(C)CC5)CC4)cc3)nc2n1-c1cccc(O[C@H]2CCOC2)n1 = 1.95
• C=CCn1c(=O)c2cnc(Nc3ccc(N4CCC5(CCN(C)CC5)CC4)cc3)nc2n1-c1cccc(N2CCCC2=O)n1 = 1.10
• C=CCn1c(=O)c2cnc(Nc3ccc(N4CCC5(CCN(C(=O)OC)CC5)CC4)cc3)nc2n1-c1cccc(C2(O)COC2)n1 = 1.20
• C=CCn1c(=O)c2cnc(Nc3ccc(N4CCC5(CCN(C(C)=O)CC5)CC4)cc3)nc2n1-c1cccc(C(C)(C)O)n1 = 1.77
• C=CCn1c(=O)c2cnc(Nc3ccc(N4CCC5(CCN(C)CC5)CC4)cc3OC)nc2n1-c1cccc(C(C)(C)O)n1 = 2.52

Then this compound:
Please give the measured log10 IC50 for this compound: C=CCn1c(=O)c2cnc(Nc3ccc(N4CCC5(CCN(C)CC5)CC4)cc3)nc2n1-c1ncccn1
2.40
